Assignment: determine reported melting point for the given compounds.

Batch: melting point for all items listed.
1. COc1ccc(Cl)cc1Cn1nc(-c2ccc(C(F)(F)F)cc2)oc1=O
2. O=C(Cc1ccccc1N1CCCC1)N1C[C@@H]2[C@H](F)CCC(c3ccccc3)(c3ccccc3)[C@@H]2C1
3. NNC(=O)c1ccccc1CS(N)(=O)=O
4. O=C1N(Cc2ccccn2)c2ccccc2C12COc1cc3nccnc3cc12 (configuration not stated)
5. COC(C(N)=O)C(=O)O (configuration not stated)
6. CC(C)C(C(=O)O)c1ccc(O)cc1 (configuration not stated)
7. CCOC(=O)c1cccnc1N

OUTPUT:
144 to 145 °C
170 °C
221 to 222 °C
232 to 233 °C
128 to 130 °C
172 to 174 °C
90.5 to 92.5 °C
